Experiment: Drug concentration in total liver in Wistar Han rat at 1 to 2 mg/kg, iv infused for 10 to 20 hrs by LC-MS/MS analysis
Conditions: in vivo
endpoint: Ct (ng/mL)

Before answering, review these 3 worked examples.
COc1ccc(-c2cc3c(C(=O)O)n[nH]c3cc2Cl)cc1 ... 140
O=C(NC1CCCC1)C1CCN(c2nc3cc(Cl)ccc3o2)CC1 ... 210
Cc1ccc(CC(C)(C)NC[C@@H](O)CO[C@H](C)c2ccccc2-c2ccc(C(=O)O)c(C)c2)cc1F ... 220

(A) Cc1nc2cc(-c3cc(F)cc(C#N)c3)ccc2s1
(B) COc1cc2c(OC[C@H]3NC(=O)[C@@H]4C[C@]34C)nccc2cc1C(N)=O
Inquiry: // which entry has the larger Ct value, A or B ? The response must carry the label of the picked entry.
Reply text: B

(1) Cc1c(C(=O)O)cnn1-c1nc(-c2cccc(C(F)(F)F)c2)cs1
(2) COc1ccc(Cc2cc([C@@H]3OC4(COC4)[C@@H](O)[C@H](O)[C@H]3O)ccc2C)cc1
Inquiry: // returns 1 or 2 , whichever has the lower Ct Returns: label corresponding to the selected item.
Reply text: 2

(A) CCCC(Oc1ccc(-n2cc3ccccc3n2)cc1)c1ccc(C(=O)NCCC(=O)O)cc1 (stereo unspecified)
(B) O=C(O)c1nc2cc(Cl)c(Cl)cc2nc1O
Inquiry: Dear colleague, could you let me know whether A or B has the lower recorded Ct? Thanks. Kindly give the label for the entry you pick.
Reply text: B
(B: 17 ng/mL, A: 420 ng/mL)

(a) Nc1noc2ccc(-c3cc(Cl)ccc3Oc3cc(F)c(S(=O)(=O)Nc4cscn4)cc3F)cc12
(b) O=C(O)[C@@H]1CCCN(C(=O)n2cnc(-c3ccc(-c4cnc(N5CCOCC5)nc4)cc3)n2)[C@H]1c1ccccc1
Inquiry: a or b : whose Ct is greater? Answer with the label corresponding to your selection.
Reply text: b

* * *

Test: Drug concentration in total heart in Wistar Han rat at 1 to 2 mg/kg, iv infused for 10 to 20 hrs by LC-MS/MS analysis
Conditions: in vivo
endpoint: Ct (ng/mL)

COc1cc2c(OC[C@H]3NC(=O)[C@@H]4C[C@]34C)nccc2cc1C(N)=O ... 100
CC(=O)NS(=O)(=O)c1ccc(Oc2ccc(F)c(Cl)c2)c(C(F)(F)F)c1 ... 103
Cn1cnc(-c2ccc(O[C@H]3CCN(C(=O)Cc4ccc(OC(F)(F)F)cc4)C[C@@H]3F)c(C(N)=O)c2)c1 ... 100

* * *

Assay: Unbound tissue partition coefficient, ratio of drug level in skeletal muscle to plasma in Wistar Han rat at 1 to 2 mg/kg, iv infused for 10 to 20 hrs by LC-MS/MS analysis
Settings: skeletal muscle/plasma
endpoint: Kp uu

Example entries and their recorded answers appear below.
COc1ccc(-c2cc3c(C(=O)O)n[nH]c3cc2Cl)cc1 ... 0.15
O=C(NC1CC1)c1nc2cccnn2c1-c1ccc2ncnn2c1 ... 1.3
Cc1ccc(NC(=O)N2CCN(Cc3sc4ccccc4c3C)CC2)nc1 ... 0.65
Cc1c(C(=O)O)cnn1-c1nc(-c2cccc(C(F)(F)F)c2)cs1 ... 0.45
Oc1noc2cc(Cl)c(Cl)cc12 ... 1.2

(1) O=C(O)[C@@H]1CCN(C(=O)n2cnc(-c3ccc(-c4cnc(N5CCOCC5)nc4)cc3)n2)[C@@H](c2ccccc2)C1
(2) CC(C)C[C@H](Nc1ccc(C(=O)NCCC(=O)O)cn1)c1ccc(-c2ccc(C(F)(F)F)cn2)cc1
(3) CC(=O)NS(=O)(=O)c1ccc(Oc2ccc(F)c(Cl)c2)c(C(F)(F)F)c1
(4) COc1cc(/C=C2\CCCN([C@@H](C)c3ccc(F)cc3)C2=O)ccc1-n1cnc(C)c1
Inquiry: Order the 4 compounds from highest to lowest Kp uu. The response must list the labels following the requested ordering.
Reply text: 1, 3, 4, 2

(1) Cc1nc([C@@H]2CCOC2)c2c(N3CCc4c(c(C5CC5)nn4C)C3)ncnn12
(2) CN(C)C(=O)c1cc(CC(=O)O)ccc1NC(=O)c1ccccc1-c1ccc(C(F)(F)F)cc1
Inquiry: Lab note: check whether 1 or 2 shows the higher recorded Kp uu. Which one? Tell me its label.
Reply text: 1

(a) C[C@H](CN1CCOCC1)n1/c(=N\C(N)=O)[nH]c2cc(/C=C3\c4ccccc4COc4cc(F)ccc43)ccc21
(b) O=C(c1cccc(N2CCNCC2)n1)N1CCC(c2ccccc2F)CC1
Inquiry: Could you tell me which of a and b has the lower Kp uu reading? Mark your selection by writing its label.
Reply text: a
(a: 0.14, b: 2)
